tested on: Cesa1_P1010L, fpx2-2 mutant line; assay: Greenhouse phytotox, pre-emergent treatment; type: in vivo, Arabidopsis thaliana; settings: 0.98 g ai/ha
Use 30 as the dividing line for Phytotox value on a scale from 0-100 (100 is 100% damage), with the line itself on the condition met side and lower values as condition not met.

q: Test whether the compound CC(C)(F)c1nc(N)nc(Nc2c(F)c(F)c(Br)c(F)c2F)n1 records Phytotox value on a scale from 0-100 (100 is 100% damage) of 30 or higher.
a: condition not met

q: Evaluate CC(C)(F)c1nc(N)nc(Nc2nc(F)c(F)c(Cl)c2F)n1 : Phytotox value on a scale from 0-100 (100 is 100% damage) at minimum 30?
a: condition met

q: Reported Phytotox value on a scale from 0-100 (100 is 100% damage) reaches at least 30 for Nc1nc(Nc2c(F)c(F)cc(F)c2F)nc(-c2c(F)cccc2F)n1 ?
a: condition met

q: I'd appreciate it if you could say whether Nc1nc(Nc2c(F)c(F)c(F)c(F)c2F)nc(C2CCCC2)n1 has Phytotox value on a scale from 0-100 (100 is 100% damage) at least equal to 30.
a: condition met

q: Reported Phytotox value on a scale from 0-100 (100 is 100% damage) reaches at least 30 for CC(C)(F)c1nc(N)nc(Nc2c(F)c(F)c(F)c(F)c2F)n1 ?
a: condition met

###

system: Arabidopsis mutant line Cesa3_S1040L; test: Growth inhibition of Arabidopsis lines in 48-well plates, tolerance factor from IC50; format: in vivo, Arabidopsis thaliana; settings: growth inhibition seven to ten days after seeding
Returns yes (1) if the recorded Relative tolerance rate (wildtype = 1.0) is greater than or equal to 10, and no (0) otherwise.

Study these solved cases before continuing.
• CC(C)(F)c1nc(N)nc(Nc2nc(F)c(F)c(Cl)c2F)n1 = no (0)
• Nc1nc(Nc2c(F)c(F)cc(F)c2F)nc(-c2c(F)cccc2F)n1 = yes (1)
• CC(C)(F)c1nc(N)nc(Nc2c(F)c(F)c(F)c(F)c2F)n1 = no (0)

q: Has Nc1nc(Nc2c(F)c(F)c(F)c(F)c2F)nc(C2CCCC2)n1 a recorded Relative tolerance rate (wildtype = 1.0) greater than or equal to 10?
a: yes (1)

###

Field: Phytotox value on a scale from 0-100 (100 is 100% damage). Provide a value for each of the compounds that follow.
system: Cesa1_G1009D, fpx2-3 mutant line; test: Greenhouse phytotox, pre-emergent treatment; type: in vivo, Arabidopsis thaliana; settings: 0.25 g ai/ha
Source text: […]
Numbers only.

• Nc1nc(Nc2c(F)c(F)c(F)c(F)c2F)nc(C2CCCC2)n1 = 5
• CC(C)(F)c1nc(N)nc(Nc2nc(F)c(F)c(Cl)c2F)n1 = 43
• CC(C)(F)c1nc(N)nc(Nc2c(F)c(F)c(F)c(F)c2F)n1 = 78

Recorded Phytotox value on a scale from 0-100 (100 is 100% damage) (compound CC(C)(F)c1nc(N)nc(Nc2c(F)c(F)c(Br)c(F)c2F)n1 ): 50

###

system: A. thaliana WT L. erecta; assay: Greenhouse phytotox, pre-emergent treatment; type: in vivo, Arabidopsis thaliana; conditions: 15.63 g ai/ha
Exercise: state measured Phytotox value on a scale from 0-100 (100 is 100% damage) for each of the molecules provided.

The cases that follow already have their Phytotox value on a scale from 0-100 (100 is 100% damage) on record.
- Cc1cccc(-n2nc(C(N)=O)nc2-c2ccccc2)c1 [reference compound]: 63
- Nc1nc(Nc2c(F)c(F)c(F)c(F)c2F)nc(C2CCCC2)n1: 100
- Nc1nc(Nc2c(F)c(F)cc(F)c2F)nc(-c2c(F)cccc2F)n1: 90

For the next question, use this molecule.
Just so you know, measured Phytotox value on a scale from 0-100 (100 is 100% damage) for CC(C)(F)c1nc(N)nc(Nc2c(F)c(F)c(Br)c(F)c2F)n1 came out at 100
